Can you tell me AC50 for the items I'm about to list?
target: Voltage-gated inwardly rectifying potassium channel KCNH2 (Homo sapiens); assay type: functional; settings: read-out: AC50; also: assay procedure not described here
Sequence (Q12809 whole entry): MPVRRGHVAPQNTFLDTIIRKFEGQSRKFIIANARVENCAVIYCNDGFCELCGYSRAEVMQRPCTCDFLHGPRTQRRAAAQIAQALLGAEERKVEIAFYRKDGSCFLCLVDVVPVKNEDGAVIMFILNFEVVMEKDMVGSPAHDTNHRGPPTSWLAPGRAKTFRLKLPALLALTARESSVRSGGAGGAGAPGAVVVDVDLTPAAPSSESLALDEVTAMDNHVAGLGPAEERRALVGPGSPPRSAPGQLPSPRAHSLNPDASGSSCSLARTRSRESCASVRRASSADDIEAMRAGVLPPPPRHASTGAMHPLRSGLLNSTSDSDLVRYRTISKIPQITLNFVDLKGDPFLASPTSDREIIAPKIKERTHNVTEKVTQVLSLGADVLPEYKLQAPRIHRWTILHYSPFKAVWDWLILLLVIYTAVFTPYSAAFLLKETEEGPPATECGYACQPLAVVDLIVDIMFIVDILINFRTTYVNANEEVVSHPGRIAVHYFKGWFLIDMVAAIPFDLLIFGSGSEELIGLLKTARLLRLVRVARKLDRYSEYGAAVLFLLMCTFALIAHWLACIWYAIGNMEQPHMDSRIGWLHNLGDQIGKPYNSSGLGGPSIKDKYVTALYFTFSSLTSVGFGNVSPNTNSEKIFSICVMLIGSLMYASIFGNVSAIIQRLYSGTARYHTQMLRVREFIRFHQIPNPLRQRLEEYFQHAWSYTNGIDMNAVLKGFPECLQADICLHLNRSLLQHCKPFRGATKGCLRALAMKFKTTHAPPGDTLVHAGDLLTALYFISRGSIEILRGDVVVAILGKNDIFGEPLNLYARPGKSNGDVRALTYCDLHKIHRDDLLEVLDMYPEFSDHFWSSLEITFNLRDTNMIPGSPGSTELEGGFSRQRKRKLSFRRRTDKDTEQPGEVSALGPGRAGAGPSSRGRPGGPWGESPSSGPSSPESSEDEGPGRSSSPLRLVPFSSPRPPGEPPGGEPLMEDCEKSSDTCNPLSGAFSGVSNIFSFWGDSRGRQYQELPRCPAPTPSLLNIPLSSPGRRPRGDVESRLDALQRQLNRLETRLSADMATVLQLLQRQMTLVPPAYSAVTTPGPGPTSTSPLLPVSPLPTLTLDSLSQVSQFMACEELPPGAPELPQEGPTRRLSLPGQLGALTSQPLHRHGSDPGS
Unit µM implied. Number only.

IN: Could you share which AC50 value was measured for COc1cc(N)cn[n+]1-c1ccccc1 [AMEZINIUM METILSULFATE] ?
OUT: 3.8

IN: Could you share which AC50 value was measured for CN1CCC(N(Cc2cccs2)c2ccccc2)CC1 ?
OUT: 2.9

IN: Could you share which AC50 value was measured for CC(C(=O)O)c1ccc(C(=O)c2ccccc2)s1 (centres undefined) ?
OUT: 9.26

---

Can you tell me AC50 for the items I'm about to list?
biological target: Prostaglandin G/H synthase 1 (Rattus norvegicus); format: functional; also: assay procedure not described here
Sequence (Q63921 whole entry): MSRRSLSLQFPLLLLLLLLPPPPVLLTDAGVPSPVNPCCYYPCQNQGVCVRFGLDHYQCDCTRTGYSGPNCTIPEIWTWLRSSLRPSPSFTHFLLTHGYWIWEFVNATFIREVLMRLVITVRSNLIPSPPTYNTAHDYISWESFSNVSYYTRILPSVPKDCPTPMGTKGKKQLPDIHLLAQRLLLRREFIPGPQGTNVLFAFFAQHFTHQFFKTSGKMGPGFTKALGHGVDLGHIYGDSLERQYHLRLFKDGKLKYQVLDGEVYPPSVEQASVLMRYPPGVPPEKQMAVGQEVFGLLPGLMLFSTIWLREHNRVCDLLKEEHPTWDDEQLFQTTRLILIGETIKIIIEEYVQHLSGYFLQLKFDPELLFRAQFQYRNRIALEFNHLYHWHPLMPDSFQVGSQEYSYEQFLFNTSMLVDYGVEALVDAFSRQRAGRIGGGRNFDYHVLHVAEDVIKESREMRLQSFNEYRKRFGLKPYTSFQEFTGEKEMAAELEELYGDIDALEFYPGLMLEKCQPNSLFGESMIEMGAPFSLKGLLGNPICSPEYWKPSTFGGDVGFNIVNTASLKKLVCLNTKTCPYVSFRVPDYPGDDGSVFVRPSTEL

IN: What measured AC50 is associated with CCCCCCOC(=O)NC(=N)c1ccc(NCc2nc3cc(C(=O)N(CCC(=O)OCC)c4ccccn4)ccc3n2C)cc1 [DABIGATRAN ETEXILATE] on Prostaglandin G/H synthase 1 (Rattus norvegicus)?
OUT: > 30 µM

IN: What measured AC50 is associated with CCC1(C)CC(=O)NC1=O (stereo not drawn) [ETHOSUXIMIDE] on Prostaglandin G/H synthase 1 (Rattus norvegicus)?
OUT: > 10 µM

IN: What measured AC50 is associated with C[C@H](CCC(=O)O)[C@H]1CC[C@H]2[C@@H]3[C@H](O)C[C@@H]4C[C@H](O)CC[C@]4(C)[C@H]3CC[C@]12C on Prostaglandin G/H synthase 1 (Rattus norvegicus)?
OUT: > 30 µM

---

As an illustration, consider measured AC50 for compounds on Sodium-dependent serotonin transporter (Homo sapiens, UniProt P31645).
Sequence (P31645 whole entry): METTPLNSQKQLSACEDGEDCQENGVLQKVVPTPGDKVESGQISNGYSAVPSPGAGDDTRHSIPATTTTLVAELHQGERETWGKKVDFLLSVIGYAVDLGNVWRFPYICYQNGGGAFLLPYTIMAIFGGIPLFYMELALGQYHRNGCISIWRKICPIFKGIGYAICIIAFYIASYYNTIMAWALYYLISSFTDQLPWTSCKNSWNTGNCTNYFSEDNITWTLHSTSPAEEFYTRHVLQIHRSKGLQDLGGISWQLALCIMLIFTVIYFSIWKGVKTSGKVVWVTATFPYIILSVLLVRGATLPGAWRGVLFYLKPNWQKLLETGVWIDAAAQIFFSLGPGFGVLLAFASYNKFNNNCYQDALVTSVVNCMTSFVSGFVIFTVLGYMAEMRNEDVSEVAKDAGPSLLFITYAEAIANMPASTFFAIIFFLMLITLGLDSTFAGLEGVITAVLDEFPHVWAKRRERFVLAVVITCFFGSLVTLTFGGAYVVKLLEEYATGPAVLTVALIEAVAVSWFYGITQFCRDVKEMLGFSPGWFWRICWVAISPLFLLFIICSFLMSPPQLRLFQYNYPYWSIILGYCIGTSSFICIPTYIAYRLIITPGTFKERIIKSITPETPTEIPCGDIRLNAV

IN: Could you share which AC50 value was measured for CC(=O)Oc1cccc2c1C(=O)c1c(OC(C)=O)cc(C(=O)O)cc1C2=O ?
OUT: 23 µM

IN: Could you share which AC50 value was measured for CC(C(=O)O)c1ccc(C(=O)c2ccccc2)s1 (configuration not stated) ?
OUT: > 10 µM

IN: Could you share which AC50 value was measured for O=C(O)c1nn(Cc2ccc(Cl)cc2Cl)c2ccccc12 ?
OUT: > 30 µM

IN: Could you share which AC50 value was measured for Nc1nc(Cl)nc2c1ncn2[C@@H]1O[C@H](CO)[C@@H](O)[C@@H]1F ?
OUT: > 30 µM

IN: Could you share which AC50 value was measured for CC(C)(CO)c1cc2cc(NC(=O)C3(c4ccc5c(c4)OC(F)(F)O5)CC3)c(F)cc2n1C[C@@H](O)CO ?
OUT: > 30 µM

IN: Could you share which AC50 value was measured for CC(C)C[C@H](NC(=O)[C@H](Cc1ccccc1)NC(=O)c1cnccn1)B(O)O ?
OUT: > 30 µM

IN: Could you share which AC50 value was measured for C[C@]12CCC(=O)C=C1[C@@H]1C[C@@H]1[C@H]1[C@@H]3[C@@H]4C[C@@H]4[C@@]4(CCC(=O)O4)[C@@]3(C)CC[C@@H]12 ?
OUT: > 30 µM

---

quantityName: AC50

IN: What measured AC50 is associated with O=C(Cc1cccs1)N[C@@H]1C(=O)N2C(C(=O)[O-])=C(C[n+]3ccccc3)CS[C@H]12 on 5-hydroxytryptamine receptor 2C (Homo sapiens, UniProt P28335)?
OUT: > 30 µM

IN: What measured AC50 is associated with CCC(=O)[C@@]1(C)[C@H](C)C[C@H]2[C@@H]3CCC4=CC(=O)C=C[C@]4(C)[C@H]3[C@@H](O)C[C@@]21C [RIMEXOLONE] on 5-hydroxytryptamine receptor 2C (Homo sapiens, UniProt P28335)?
OUT: > 30 µM

IN: What measured AC50 is associated with CN(C)CCc1c[nH]c2ccc(CS(=O)(=O)N3CCCC3)cc12 on 5-hydroxytryptamine receptor 2C (Homo sapiens, UniProt P28335)?
OUT: > 30 µM

---

biological target: Adenosine receptor A3 (Homo sapiens); also: assay procedure not described here
Can you tell me AC50 for the items I'm about to list?

IN: Could you share which AC50 value was measured for C[C@]12C=CC(=O)C=C1C(Cl)=C[C@@H]1[C@@H]2[C@@H](O)C[C@@]2(C)[C@H]1CC[C@]2(O)C(=O)CO ?
OUT: 13 µM

IN: Could you share which AC50 value was measured for CN(C)CCOC(=O)C(c1ccccc1)C1(O)CCCC1 (stereo unspecified) [CYCLOPENTOLATE] ?
OUT: > 10 µM

IN: Could you share which AC50 value was measured for Cc1ccc(S(=O)(=O)NC(=O)N[C@H]2[C@H]3CC[C@@](C)([C@H]2O)C3(C)C)cc1 [GLIBORNURIDE] ?
OUT: > 30 µM

IN: Could you share which AC50 value was measured for O=C(O[C@H]1C[N+]2(CCCOc3ccccc3)CCC1CC2)C(O)(c1cccs1)c1cccs1 [ACLIDINIUM BROMIDE] ?
OUT: > 30 µM

IN: Could you share which AC50 value was measured for OCCOCCN1CCN(C(c2ccccc2)c2ccc(Cl)cc2)CC1 (stereo unspecified) [HYDROXYZINE] ?
OUT: > 30 µM

IN: Could you share which AC50 value was measured for NCC1(CC(=O)O)CCCCC1 ?
OUT: > 30 µM

---

Can you tell me AC50 for the items I'm about to list?
target: Voltage-dependent L-type calcium channel subunit alpha-1C (Rattus norvegicus, UniProt P22002); format: functional; also: assay procedure not described here
Sequence (P22002 whole entry): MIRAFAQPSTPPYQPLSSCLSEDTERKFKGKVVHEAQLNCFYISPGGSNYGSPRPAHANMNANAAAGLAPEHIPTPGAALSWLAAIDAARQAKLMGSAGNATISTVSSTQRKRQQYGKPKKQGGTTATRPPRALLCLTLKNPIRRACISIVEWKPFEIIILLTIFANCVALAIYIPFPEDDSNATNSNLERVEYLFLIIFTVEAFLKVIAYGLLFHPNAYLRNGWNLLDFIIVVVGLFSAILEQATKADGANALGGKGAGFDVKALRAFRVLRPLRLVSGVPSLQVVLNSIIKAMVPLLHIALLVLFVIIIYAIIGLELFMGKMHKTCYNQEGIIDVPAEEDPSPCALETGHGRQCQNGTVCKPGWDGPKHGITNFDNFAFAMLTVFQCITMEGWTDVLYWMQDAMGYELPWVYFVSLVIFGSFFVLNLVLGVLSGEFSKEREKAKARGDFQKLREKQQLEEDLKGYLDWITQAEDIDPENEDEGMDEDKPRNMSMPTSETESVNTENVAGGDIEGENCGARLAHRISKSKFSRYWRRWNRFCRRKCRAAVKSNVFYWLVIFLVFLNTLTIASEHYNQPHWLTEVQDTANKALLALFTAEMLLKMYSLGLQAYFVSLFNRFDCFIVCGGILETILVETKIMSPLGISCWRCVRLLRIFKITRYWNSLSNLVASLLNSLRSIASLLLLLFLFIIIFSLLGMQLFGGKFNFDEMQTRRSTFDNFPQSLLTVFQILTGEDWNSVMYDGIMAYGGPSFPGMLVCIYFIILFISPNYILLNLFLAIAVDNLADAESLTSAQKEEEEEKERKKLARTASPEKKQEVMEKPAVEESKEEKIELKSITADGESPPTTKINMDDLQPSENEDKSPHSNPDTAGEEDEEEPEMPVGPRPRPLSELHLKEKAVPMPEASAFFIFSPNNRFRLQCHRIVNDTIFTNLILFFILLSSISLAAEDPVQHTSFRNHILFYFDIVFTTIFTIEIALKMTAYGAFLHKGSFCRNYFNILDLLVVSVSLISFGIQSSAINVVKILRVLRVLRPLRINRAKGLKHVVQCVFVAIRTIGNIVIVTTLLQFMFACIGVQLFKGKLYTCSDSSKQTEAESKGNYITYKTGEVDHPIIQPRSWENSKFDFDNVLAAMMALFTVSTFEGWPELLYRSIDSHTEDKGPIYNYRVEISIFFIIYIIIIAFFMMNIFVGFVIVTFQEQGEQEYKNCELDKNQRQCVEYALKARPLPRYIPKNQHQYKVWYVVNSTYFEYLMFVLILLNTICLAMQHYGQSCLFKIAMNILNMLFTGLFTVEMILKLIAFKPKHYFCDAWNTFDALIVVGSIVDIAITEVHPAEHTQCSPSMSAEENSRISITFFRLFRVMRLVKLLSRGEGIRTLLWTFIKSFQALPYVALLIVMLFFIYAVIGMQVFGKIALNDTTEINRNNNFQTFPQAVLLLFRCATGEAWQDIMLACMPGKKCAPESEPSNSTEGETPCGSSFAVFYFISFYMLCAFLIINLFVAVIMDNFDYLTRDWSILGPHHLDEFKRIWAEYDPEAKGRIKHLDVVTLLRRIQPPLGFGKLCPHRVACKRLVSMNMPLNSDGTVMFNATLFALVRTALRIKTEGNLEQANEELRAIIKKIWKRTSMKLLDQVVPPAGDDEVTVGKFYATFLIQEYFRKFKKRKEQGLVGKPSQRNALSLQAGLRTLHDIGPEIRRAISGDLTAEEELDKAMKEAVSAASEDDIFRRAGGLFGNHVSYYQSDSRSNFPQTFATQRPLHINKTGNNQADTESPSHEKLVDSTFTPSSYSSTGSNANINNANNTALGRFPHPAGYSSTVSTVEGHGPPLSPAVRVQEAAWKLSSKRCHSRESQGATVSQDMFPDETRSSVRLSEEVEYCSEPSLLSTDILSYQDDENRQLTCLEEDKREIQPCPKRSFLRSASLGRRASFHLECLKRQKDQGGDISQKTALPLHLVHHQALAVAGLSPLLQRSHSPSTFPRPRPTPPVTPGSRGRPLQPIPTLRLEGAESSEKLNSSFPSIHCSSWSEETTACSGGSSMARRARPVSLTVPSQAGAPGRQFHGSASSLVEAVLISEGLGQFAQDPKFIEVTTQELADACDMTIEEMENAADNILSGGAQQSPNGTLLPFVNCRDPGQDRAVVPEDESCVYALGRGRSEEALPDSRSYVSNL

IN: Could you share which AC50 value was measured for COc1ccc(C(Cl)=C(c2ccc(OC)cc2)c2ccc(OC)cc2)cc1 ?
OUT: > 10 µM

IN: Could you share which AC50 value was measured for CCCCOC(=O)C(=O)Nc1cccc(-c2nnn[nH]2)c1 ?
OUT: > 30 µM

IN: Could you share which AC50 value was measured for CN1CCCN=C1/C=C/c1cccc(O)c1 ?
OUT: > 30 µM

---

quantityName: AC50

IN: What measured AC50 is associated with COc1ccc(-n2nc(C(N)=O)c3c2C(=O)N(c2ccc(N4CCCCC4=O)cc2)CC3)cc1 on UniProtKB P35372?
OUT: > 30 µM

IN: What measured AC50 is associated with COc1cc2c(cc1OC)C1CC(=O)C(CC(C)C)CN1CC2 (stereo unspecified) on UniProtKB P35372?
OUT: > 30 µM

IN: What measured AC50 is associated with CN1CCC(=C2c3ccccc3CC(=O)c3sccc32)CC1 on UniProtKB P35372?
OUT: > 30 µM

IN: What measured AC50 is associated with CCN(CC)CCCN(c1ccccc1)C1Cc2ccccc2C1 on UniProtKB P35372?
OUT: 19 µM

IN: What measured AC50 is associated with C[C@]12C=CC(=O)C=C1CC[C@@H]1[C@@H]2[C@@H](O)C[C@@]2(C)[C@H]1CC[C@]2(O)C(=O)CO on UniProtKB P35372?
OUT: > 30 µM

IN: What measured AC50 is associated with CN1CC2c3ccccc3Oc3ccc(Cl)cc3C2C1 (stereo unspecified) on UniProtKB P35372?
OUT: > 30 µM

IN: What measured AC50 is associated with Oc1cc(O)c2c(c1)O[C@H](c1ccc(O)c(O)c1)[C@@H](O)C2 on UniProtKB P35372?
OUT: > 30 µM

IN: What measured AC50 is associated with C[C@H](CS)C(=O)N1CCC[C@H]1C(=O)O on UniProtKB P35372?
OUT: > 30 µM

IN: What measured AC50 is associated with Cc1ccc(-c2ncc(Cl)cc2-c2ccc(S(C)(=O)=O)cc2)cn1 on UniProtKB P35372?
OUT: > 10 µM

IN: What measured AC50 is associated with CC(C)(N)Cc1ccccc1 on UniProtKB P35372?
OUT: > 30 µM

IN: What measured AC50 is associated with CN1C2CCCC1CC(NC(=O)c1nn(C)c3ccccc13)C2 (stereo unspecified) on UniProtKB P35372?
OUT: > 10 µM

---

As an illustration, consider measured AC50 for molecules on B2 bradykinin receptor (Homo sapiens, UniProt P30411).
Sequence (P30411 whole entry): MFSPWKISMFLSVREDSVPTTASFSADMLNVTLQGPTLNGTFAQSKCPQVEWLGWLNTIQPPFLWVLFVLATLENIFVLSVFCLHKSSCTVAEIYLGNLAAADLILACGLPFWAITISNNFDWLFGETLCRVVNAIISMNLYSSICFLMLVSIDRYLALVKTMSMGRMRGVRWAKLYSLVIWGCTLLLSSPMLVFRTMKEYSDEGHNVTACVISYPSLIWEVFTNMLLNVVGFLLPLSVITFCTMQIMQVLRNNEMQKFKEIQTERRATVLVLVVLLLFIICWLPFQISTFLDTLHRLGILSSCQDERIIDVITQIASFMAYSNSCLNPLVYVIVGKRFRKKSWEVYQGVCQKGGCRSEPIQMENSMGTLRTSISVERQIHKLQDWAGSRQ

IN: Could you share which AC50 value was measured for CCCCOC(=O)C(=O)Nc1cccc(-c2nnn[nH]2)c1 ?
OUT: > 30 µM

IN: Could you share which AC50 value was measured for CCN(CCO)CCCC(C)Nc1ccnc2cc(Cl)ccc12 (stereo unspecified) [HYDROXYCHLOROQUINE] ?
OUT: > 10 µM

IN: Could you share which AC50 value was measured for OCC(CO)N[C@H]1C[C@](O)(CO)[C@@H](O)[C@H](O)[C@H]1O ?
OUT: > 30 µM

IN: Could you share which AC50 value was measured for CCC(=O)O[C@H](CC(=O)O)C[N+](C)(C)C [LEVOCARNITINE PROPIONATE] ?
OUT: > 30 µM

IN: Could you share which AC50 value was measured for C[C@H](Cn1cnc2c(N)ncnc21)OCP(=O)(O)O [TENOFOVIR ANHYDROUS] ?
OUT: > 30 µM

IN: Could you share which AC50 value was measured for C[C@@H](Cc1ccccc1)N(C)Cc1ccccc1 ?
OUT: > 10 µM

IN: Could you share which AC50 value was measured for CC(C)CN(C[C@@H](O)[C@H](Cc1ccccc1)NC(=O)O[C@H]1CCOC1)S(=O)(=O)c1ccc(N)cc1 ?
OUT: > 30 µM

IN: Could you share which AC50 value was measured for O=C(O)CCCC[C@@H]1SC[C@@H]2NC(=O)N[C@@H]21 ?
OUT: > 10 µM

IN: Could you share which AC50 value was measured for CCCCCCOC(=O)NC(=N)c1ccc(NCc2nc3cc(C(=O)N(CCC(=O)OCC)c4ccccn4)ccc3n2C)cc1 [DABIGATRAN ETEXILATE] ?
OUT: > 30 µM

IN: Could you share which AC50 value was measured for C[C@]12CCC(=O)C=C1[C@@H]1C[C@@H]1[C@H]1[C@@H]3[C@@H]4C[C@@H]4[C@@]4(CCC(=O)O4)[C@@]3(C)CC[C@@H]12 ?
OUT: > 30 µM

IN: Could you share which AC50 value was measured for COC(=O)c1ccc2c(c1)NC(=O)/C2=C(\Nc1ccc(N(C)C(=O)CN2CCN(C)CC2)cc1)c1ccccc1 ?
OUT: > 10 µM
